Biological target: TRAF6WTStrepII-Ubc13FH interaction (Homo sapiens)
Construct: RING-Zincfinger1 (RZ1) domain (residues 50-159) of human TRAF6 wildtype
Sequence (Q9Y4K3 with tags, fused parts or gaps): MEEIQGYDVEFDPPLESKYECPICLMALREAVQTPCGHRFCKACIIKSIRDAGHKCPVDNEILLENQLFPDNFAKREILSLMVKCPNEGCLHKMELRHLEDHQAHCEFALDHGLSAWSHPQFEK
Test: ALPHAScreen TRAF6-Ubc13 interaction assay
Details: TRAF6 100 nM, Ubc13FH 75 nM; class symbols; read-out: IC50 Alphascreen (inhibition of TRAF6-UBC13 interaction)
Excerpt: In order to identify small molecules that specifically target the RZ1 domain of TRAF6 and thereby prevent its binding to Ubc13, the ALPHAScreen technology (PerkinElmer) was chosen to detect TRAF6WTStrepII-Ubc13FH interaction in High-Throughput-Screenings as well as Structure Activity Relationship (SAR) analysis. For performance of an automated ALPHAScreen assay, all following components were pre-diluted in ALPHAScreen buffer (1×PBS, 0.5% BSA, 0.01% Tween-20). […]
pIC50: −log10 of the molar value.
parameterMeasured: pIC50

Past entries and their recorded results:
Cc1cccc(CN2CCN(C(=O)CCc3c(C)nn(-c4ccc5nnc(C)n5n4)c3C)CC2)c1    ≥ 5.00
Cc1nn(-c2ccc3nnc(C)n3n2)c(C)c1CCC(=O)N1CCN(Cc2ccc3oc(=O)ccc3c2)CC1    ≥ 5.00

[in] # input compound: Cc1nn(-c2ccc3nnc(C)n3n2)c(C)c1CCC(=O)N1CCN(Cc2ccc(C(=O)O)cc2)CC1 ; wanted: its pIC50
[out] ≥ 5.52

[in] For the compound shown here, Cc1nn(-c2ccc3nnc(C)n3n2)c(C)c1CCC(=O)N1CCN(Cc2cccc(I)c2)CC1 , give the reported pIC50.
[out] ≥ 5.52

[in] # pIC50 lookup, item Cc1nn(-c2ccc3nnc(C(F)(F)F)n3n2)c(C)c1CCC(=O)N1CCN(Cc2cccc(C#N)c2C)CC1
[out] ≥ 5.00

[in] Returns the measured pIC50 for the input compound. Input: Cc1nn(-c2ccc3nnc(C(F)(F)F)n3n2)c(C)c1CCC(=O)N1CCN(Cc2ccc(C#N)cc2F)CC1
[out] ≥ 5.52

[in] Dear colleague, I am looking for the recorded pIC50 of the following compound: Cc1nn(-c2ccc3nnc(C(F)(F)F)n3n2)c(C)c1CCC(=O)N1CCN(Cc2ccc(-c3nnn[nH]3)cc2F)CC1
[out] ≥ 5.52

[in] Returns the measured pIC50 for the input compound. Input: COC(=O)c1cccc(CN2CCN(C(=O)CCc3c(C)nn(-c4ccc5nnc(C)n5n4)c3C)CC2)c1
[out] ≥ 5.00

[in] Suppose we examine the compound Cc1nn(-c2ccc3nnc(C)n3n2)c(C)c1CCC(=O)N1CCN(Cc2ccc(S(C)(=O)=O)cc2)CC1 ; what pIC50 value has been reported?
[out] ≥ 5.52

[in] Quick check: pIC50 of Cc1nn(-c2ccc3nnc(C)n3n2)c(C)c1CCC(=O)N1CCN(Cc2cc(-c3nnn[nH]3)ccc2Cl)CC1 ?
[out] ≥ 5.52

[in] Please look up its pIC50: Cc1nn(-c2ccc3nnc(C)n3n2)c(C)c1CCC(=O)N1CCN(Cc2ccc3cn[nH]c3c2)CC1
[out] ≥ 5.00

[in] Recorded pIC50 for CNC(=O)c1cccc(CN2CCN(C(=O)CCc3c(C)nn(-c4ccc5nnc(C)n5n4)c3C)CC2)c1 , please?
[out] ≥ 4.52

[in] Fill in: pIC50 of CC(=O)Nc1ccc(CN2CCN(C(=O)CCc3c(C)nn(-c4ccc5nnc(C)n5n4)c3C)CC2)cc1 is ___
[out] ≥ 5.00

[in] Recorded pIC50 for Cc1nn(-c2ccc3nnc(C)n3n2)c(C)c1CCC(=O)N1CCN(Cc2cc(C#N)ccc2Cl)CC1 , please?
[out] ≥ 5.00

[in] So what's the measured pIC50 for this one? Cc1nn(-c2ccc3nnc(C(F)(F)F)n3n2)c(C)c1CCC(=O)N1CCN(Cc2cc(C#N)ccc2Cl)CC1
[out] ≥ 5.52

[in] Entry Cc1nn(-c2ccc3nnc(C)n3n2)c(C)c1CCC(=O)N1CCN(Cc2cccc(C(F)(F)F)c2)CC1 : reported pIC50 = ?
[out] ≥ 5.52

[in] Given Cc1nn(-c2ccc3nnc(C(F)(F)F)n3n2)c(C)c1CCC(=O)N1CCN(Cc2cccc(-c3nnn[nH]3)c2C)CC1 , state its recorded pIC50.
[out] ≥ 5.00
